target: T1, mouse LTβR extracellular domain fused with an Fc fragment at the C-terminus (mouse, UniProt P50284 31-223); assay: phage ELISA
T1 construct: extracellular domain; Bought; also called mLTβR; not shown: Fc fragment at the C-terminus
T1 sequence (P50284 31-223): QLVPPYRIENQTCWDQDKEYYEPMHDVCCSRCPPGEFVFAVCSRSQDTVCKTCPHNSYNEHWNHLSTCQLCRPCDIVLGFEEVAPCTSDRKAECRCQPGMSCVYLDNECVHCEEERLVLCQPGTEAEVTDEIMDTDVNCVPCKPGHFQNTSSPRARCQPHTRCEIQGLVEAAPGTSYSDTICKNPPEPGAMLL

- binder: "LIGHT-8 (ligand, Printed mutations: G150S, S160G, L220S; Soluble protein carries an N-terminal His tag) DGPAGSWEQLIQERRSHEVNPAAHLTGANSSLTGSGGPLLWETQLGLAFLRGLSYHDGALVVTKAGYYYIYSKVQLSGVGCPLGLAGTITHGLYKRTPRYPEELELLVSQQSPCGRATSSSRVWWDSSFLGGVVHLEAGEKVVVRVSDERLVRLRDGTRSYFGAFMV"
  binding result: "binds"
- binder: "LIGHT-55 (ligand, Printed mutations: Q117N, L220T, L227T; Soluble protein carries an N-terminal His tag) DGPAGSWEQLIQERRSHEVNPAAHLTGANSSLTGSGGPLLWETNLGLAFLRGLSYHDGALVVTKAGYYYIYSKVQLGGVGCPLGLASTITHGLYKRTPRYPEELELLVSQQSPCGRATSSSRVWWDSSFLGGVVHLEAGEKVVVRVTDERLVRTRDGTRSYFGAFMV"
  binding result: "binds"
- binder: "LIGHT-33 (ligand, Printed mutations: T161P, L220S; Soluble protein carries an N-terminal His tag) DGPAGSWEQLIQERRSHEVNPAAHLTGANSSLTGSGGPLLWETQLGLAFLRGLSYHDGALVVTKAGYYYIYSKVQLGGVGCPLGLASPITHGLYKRTPRYPEELELLVSQQSPCGRATSSSRVWWDSSFLGGVVHLEAGEKVVVRVSDERLVRLRDGTRSYFGAFMV"
  binding result: "binds"
